These data points were gathered from ChEMBL document CHEMBL5244255.

experiment: Oral bioavailability in mouse relative to control; assay type: ADME, organism-based; settings: in vivo
QUANTITY_MEASURED: bioavailability

In [3]: df
Out[3]:
                                smiles_data  experimental_result
0  COc1ccc(OCc2nn3c(-c4ccc(Br)cc4)nnc3s2)cc1                  14%

----------
biological target: Bifunctional dihydrofolate reductase-thymidylate synthase (Plasmodium vivax); assay: Inhibition of Plasmodium vivax dihydrofolate reductase measured after 48 hrs
Sequence (O02604 whole entry): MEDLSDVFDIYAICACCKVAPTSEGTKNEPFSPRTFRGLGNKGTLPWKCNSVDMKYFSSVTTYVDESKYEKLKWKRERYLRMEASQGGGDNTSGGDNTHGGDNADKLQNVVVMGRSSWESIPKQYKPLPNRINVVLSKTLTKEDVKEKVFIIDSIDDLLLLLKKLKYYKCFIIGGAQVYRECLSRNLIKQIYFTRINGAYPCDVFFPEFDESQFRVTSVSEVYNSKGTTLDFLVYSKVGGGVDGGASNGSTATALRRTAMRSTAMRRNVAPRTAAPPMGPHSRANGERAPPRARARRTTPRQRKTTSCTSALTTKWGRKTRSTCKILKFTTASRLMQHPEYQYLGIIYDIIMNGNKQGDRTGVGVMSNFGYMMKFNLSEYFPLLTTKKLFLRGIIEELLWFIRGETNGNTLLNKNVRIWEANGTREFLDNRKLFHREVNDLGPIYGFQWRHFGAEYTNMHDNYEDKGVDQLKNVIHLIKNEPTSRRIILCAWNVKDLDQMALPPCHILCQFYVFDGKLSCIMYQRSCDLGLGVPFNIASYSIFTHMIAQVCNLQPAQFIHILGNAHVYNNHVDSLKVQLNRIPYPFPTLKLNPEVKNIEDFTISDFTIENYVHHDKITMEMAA
QUANTITY_MEASURED: IC50 (nM)

                                   compound                             tested_system  quantity_measured  reading_unit  experimental_result
0  CC1=NC2NC(CC(F)(F)F)=NN2C(Nc2ccc(C(F)(F)F)nc2)=C1 (stereo unspecified)  Bifunctional dihydrofolate reductase-thymidylate synthase (Plasmodium vivax)               IC50            nM                   94

----------
system: HCT-116; assay: Anticancer activity against human HCT-116 cells assessed as cell growth inhibition
Below is a list of entries, each paired with its recorded IC50 value.
QUANTITY_MEASURED: IC50 (µM)

In [3]: df
Out[3]:
                                smiles_data  quantity_measured  experimental_result
0  O=c1c2c3c(sc2n2c(CN4CCN(c5ccc(Cl)cc5)CC4)nnc2n1Cc1ccccc1)CCCC3               IC50                 6.56
1  O=C(CCSc1nnc2n(Cc3ccccc3)c(=O)c3c4c(sc3n12)CCCC4)N1CCN(c2ccccc2)CC1               IC50                 6.12

----------
assay: Inhibition of BRAF V600E mutant (unknown origin) incubated for 25 mins in presence of ATP by ELISA assay; parameters: species or system Homo sapiens
pIC50: −log10 of the molar value.
Below is a list of entries, each paired with its recorded pIC50 value.
QUANTITY_MEASURED: pIC50

                            smiles_data  quantity_measured  experimental_result
0  COc1ccc(C(=O)n2nc(-c3cccnc3)nc2N)cc1              pIC50                 5.72
1  COc1ccc(C(=O)n2nc(-c3ccncc3)nc2N)cc1              pIC50                 5.74

----------
tested on: LNCaP; experiment: Anticancer activity against human LNCaP cells assessed as cell growth inhibition incubated for 24 hrs by MTS assay; type: functional, cell-based
pIC50: −log10 of the molar value.
QUANTITY_MEASURED: pIC50

>>> print(df.to_string())
                                   molecule  experimental_result
0  COc1ccc2cc(C(C)c3nnc(SCC(=O)N/N=C/c4cc([N+](=O)[O-])ccc4-c4ccco4)n3-c3ccc(F)cc3)ccc2c1 (stereo unspecified)                 4.31

----------
system: Mycobacterium tuberculosis; assay: Antimycobacterial activity against Mycobacterium tuberculosis H37Rv measured after 21 days; format: functional; conditions: 504 h, time 21 day
Below is a list of entries, each paired with its recorded MIC value.
QUANTITY_MEASURED: MIC

                                smiles_data               tested_system  experimental_result
0  CC(C)=CCC/C(C)=C/COc1ccc(/C=C/c2nnc3c4ccccc4cnn23)cc1  Mycobacterium tuberculosis            0.5 µg/mL
1                    C#Cc1nnc2c3ccccc3cnn12  Mycobacterium tuberculosis            0.5 µg/mL
2       CCCCCCCCCNC(=O)Cc1nnc2c3ccccc3cnn12  Mycobacterium tuberculosis            0.5 µg/mL
3      Brc1ccc(/C=C/c2nnc3c4ccccc4cnn23)cc1  Mycobacterium tuberculosis            0.5 µg/mL

----------
molecular target: Vascular endothelial growth factor receptor 2 (Homo sapiens)
Sequence (P35968 whole entry): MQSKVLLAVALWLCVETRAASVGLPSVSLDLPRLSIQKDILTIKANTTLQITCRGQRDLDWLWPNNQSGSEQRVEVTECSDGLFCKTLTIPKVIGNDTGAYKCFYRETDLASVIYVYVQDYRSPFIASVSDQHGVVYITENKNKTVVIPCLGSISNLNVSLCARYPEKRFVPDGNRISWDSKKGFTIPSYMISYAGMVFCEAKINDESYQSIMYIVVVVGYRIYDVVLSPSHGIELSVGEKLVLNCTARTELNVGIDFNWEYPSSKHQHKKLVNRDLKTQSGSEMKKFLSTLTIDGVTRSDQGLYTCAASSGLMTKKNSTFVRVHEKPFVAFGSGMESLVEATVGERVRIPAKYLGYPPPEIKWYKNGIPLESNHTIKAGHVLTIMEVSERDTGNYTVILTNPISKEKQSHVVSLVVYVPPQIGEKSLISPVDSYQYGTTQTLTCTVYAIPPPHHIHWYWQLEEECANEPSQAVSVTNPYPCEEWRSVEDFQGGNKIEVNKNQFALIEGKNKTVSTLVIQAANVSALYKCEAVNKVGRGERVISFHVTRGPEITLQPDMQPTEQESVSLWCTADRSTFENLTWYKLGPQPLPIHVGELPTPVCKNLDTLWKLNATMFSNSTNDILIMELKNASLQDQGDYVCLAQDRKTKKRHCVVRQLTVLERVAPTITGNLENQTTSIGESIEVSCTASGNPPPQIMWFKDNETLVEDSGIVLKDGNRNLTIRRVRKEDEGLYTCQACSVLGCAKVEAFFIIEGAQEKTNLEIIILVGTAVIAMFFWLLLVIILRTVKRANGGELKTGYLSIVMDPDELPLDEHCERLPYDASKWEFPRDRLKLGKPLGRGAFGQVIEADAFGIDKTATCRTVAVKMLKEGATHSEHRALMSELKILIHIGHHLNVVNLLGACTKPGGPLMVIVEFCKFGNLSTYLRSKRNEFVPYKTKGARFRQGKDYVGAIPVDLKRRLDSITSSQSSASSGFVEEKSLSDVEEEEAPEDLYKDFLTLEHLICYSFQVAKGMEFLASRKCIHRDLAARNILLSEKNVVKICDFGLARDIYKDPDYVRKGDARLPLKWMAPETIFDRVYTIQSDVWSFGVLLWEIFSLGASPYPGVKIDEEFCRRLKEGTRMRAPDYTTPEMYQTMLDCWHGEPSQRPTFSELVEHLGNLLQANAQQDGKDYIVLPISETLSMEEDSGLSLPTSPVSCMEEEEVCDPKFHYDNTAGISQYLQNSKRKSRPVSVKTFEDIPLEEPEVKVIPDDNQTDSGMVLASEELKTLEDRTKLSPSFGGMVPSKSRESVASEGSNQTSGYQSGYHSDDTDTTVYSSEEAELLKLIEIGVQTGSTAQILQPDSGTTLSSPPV
QUANTITY_MEASURED: IC50 (µM)

                                smiles_data                             tested_system  reading_unit  experimental_result
0  Cc1c(C(=O)Nc2ccc(Oc3ccnc(-c4nncn4CN4CCN(C)CC4)c3)c(F)c2)c(=O)n(-c2ccccc2)n1C  Vascular endothelial growth factor receptor 2 (Homo sapiens)            µM                 0.19

----------
biological target: Hepatocyte growth factor receptor (Homo sapiens, UniProt P08581)
Sequence (P08581 whole entry): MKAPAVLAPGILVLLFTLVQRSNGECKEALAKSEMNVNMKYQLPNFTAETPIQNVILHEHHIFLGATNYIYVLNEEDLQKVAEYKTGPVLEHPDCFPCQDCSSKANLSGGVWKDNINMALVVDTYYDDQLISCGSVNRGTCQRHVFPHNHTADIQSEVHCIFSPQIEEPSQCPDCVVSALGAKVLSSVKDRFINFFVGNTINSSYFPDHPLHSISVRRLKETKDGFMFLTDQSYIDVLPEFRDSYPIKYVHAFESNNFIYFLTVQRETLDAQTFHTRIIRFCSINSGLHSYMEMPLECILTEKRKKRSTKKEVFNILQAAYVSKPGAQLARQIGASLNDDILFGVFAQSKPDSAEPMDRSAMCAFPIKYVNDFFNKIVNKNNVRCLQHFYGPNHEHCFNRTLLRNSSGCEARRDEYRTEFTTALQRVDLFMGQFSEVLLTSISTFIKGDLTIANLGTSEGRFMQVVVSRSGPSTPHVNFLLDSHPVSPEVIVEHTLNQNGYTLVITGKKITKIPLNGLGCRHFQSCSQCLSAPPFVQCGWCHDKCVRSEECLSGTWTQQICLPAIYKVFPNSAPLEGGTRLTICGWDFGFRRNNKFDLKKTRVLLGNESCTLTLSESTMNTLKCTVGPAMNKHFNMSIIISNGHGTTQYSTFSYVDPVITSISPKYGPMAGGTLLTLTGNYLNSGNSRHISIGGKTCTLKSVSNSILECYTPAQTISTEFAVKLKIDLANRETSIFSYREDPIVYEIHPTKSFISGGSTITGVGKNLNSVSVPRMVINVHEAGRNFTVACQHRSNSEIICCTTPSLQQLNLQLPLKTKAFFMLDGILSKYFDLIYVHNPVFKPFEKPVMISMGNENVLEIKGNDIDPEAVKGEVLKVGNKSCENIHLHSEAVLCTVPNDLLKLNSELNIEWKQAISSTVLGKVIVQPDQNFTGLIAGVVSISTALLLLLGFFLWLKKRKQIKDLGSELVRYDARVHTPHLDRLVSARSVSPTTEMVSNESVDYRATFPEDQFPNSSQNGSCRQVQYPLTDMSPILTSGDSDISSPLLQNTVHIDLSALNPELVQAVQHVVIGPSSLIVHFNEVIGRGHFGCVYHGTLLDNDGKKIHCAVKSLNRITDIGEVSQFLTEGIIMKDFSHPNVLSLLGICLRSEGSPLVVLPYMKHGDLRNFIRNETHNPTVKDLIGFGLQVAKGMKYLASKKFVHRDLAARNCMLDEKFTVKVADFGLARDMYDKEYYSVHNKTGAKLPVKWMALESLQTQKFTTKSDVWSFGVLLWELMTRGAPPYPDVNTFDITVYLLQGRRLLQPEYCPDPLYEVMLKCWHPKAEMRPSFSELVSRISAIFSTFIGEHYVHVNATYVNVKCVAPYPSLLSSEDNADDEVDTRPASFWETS
QUANTITY_MEASURED: IC50

In [3]: df
Out[3]:
                                smiles_data  experimental_result
0  Cc1c(C(=O)Nc2ccc(Oc3ccnc(-c4nncn4CN4CCN(C)CC4)c3)c(F)c2)c(=O)n(-c2ccccc2)n1C               110 nM
